tested on: SF-268; test: NCI tumour cell line growth inhibition, 48 h
Calls of active or inactive are those of the source. Rule as the data show it: active = GI50 up to about 1.1 µM and inactive = higher.
Pick one: active, inactive

Lab log entry: Cc1c(S(=O)(=O)c2ccccc2)c(N)n(Cc2ccccc2)c1C — outcome as called in the assay? inactive

Lab log entry: COC(=O)c1c(O)ccc2c1c1c(n2Cc2ccccn2)C(=O)c2ccccc2C1 — outcome as called in the assay? inactive

Lab log entry: O=C(Nc1ccc(Cl)cc1)c1cc(S(=O)(=O)N2CCNNC2=O)c(S)cc1Cl — outcome as called in the assay? inactive

Lab log entry: CN(C)CCCNC(CC#N)CCC#N (stereo not given) — outcome as called in the assay? inactive

Lab log entry: COC1=CC(=O)C(O)=C(CC2(C)C(C)CCC3(C)C2CCCC3(C)C)C1=O (stereo not given) — outcome as called in the assay? inactive

Lab log entry: Cc1ccc2c(c1)C(=O)N(N(C)C)CC(=O)N2 — outcome as called in the assay? inactive

Lab log entry: COc1cc([C@@H]2c3cc4c(c(O)c3C[C@H]3COC(=O)[C@@H]32)OCO4)cc(OC)c1OC — outcome as called in the assay? active

Lab log entry: COc1cc2c3cc1Oc1c(OC)c(OC)cc4c1[C@@H](Cc1ccc(O)c(c1)Oc1ccc(cc1)C[C@@H]3N(C)CC2)N(C)CC4.c1ccccc1 — outcome as called in the assay? inactive

Lab log entry: C1=C2/CC[C@H](Sc3ccccc3)C2C2(CCCCC/1)OCCO2 (stereo not given in full) — outcome as called in the assay? inactive

Lab log entry: CC1=C2C(=O)NN=C2CCN1c1ccc(Br)cc1 — outcome as called in the assay? inactive
